# credit: ChEMBL document CHEMBL3046551

system: Aphis craccivora; experiment: Insecticidal activity against adult Aphis craccivora (cowpea aphid) assessed as […] activity after 24 hr; format: functional
Property Name: LC50

Consider the following illustrative entries.
CC(C)OC1CC(C)C([N+](=O)[O-])=C2N(Cc3ccc(Cl)nc3)CCN21 (centres undefined); 262 µM
COC1CC(C)C([N+](=O)[O-])=C2N(Cc3cnc(Cl)s3)CCN21 (centres undefined); 190 µM
CCCOC1CC(C)C([N+](=O)[O-])=C2N(Cc3ccc(Cl)nc3)CCN21 (centres undefined); 91.8 µM

Next, consider the following molecule.
Request: Given `O=[N+]([O-])/N=C1\NCCN1Cc1ccc(Cl)nc1` , state its recorded LC50.
Result: 30.9 µM
